experiment: gradient 5% acetonitrile 3 min, to 50% in 2 min, to 85% in 15 min, held 3 min, 100 µL/min; conditions: column: Zorbax Extend-C18 2.1 x 50 mm; eluents: water / acetonitrile, 0.1% formic acid
measurement.label: RP-LC retention time (s)

[
  {
    "compound": "Cc1[nH]c(C(=O)N2CCC(CC(=O)NC3CCCCCC3)CC2)c(C)c1C(=O)OC(C)C",
    "result.value": 886
  },
  {
    "compound": "O=C(NC1CCN(c2cc(-c3ccccc3)[nH]n2)C1)c1cc(F)ccc1Cl (stereo not drawn)",
    "result.value": 708
  },
  {
    "compound": "Cc1cc(C)n(-c2ccnc(N3CCC(C(=O)N4CCC5(CC4)OCCO5)CC3)n2)n1",
    "result.value": 712
  },
  {
    "compound": "O=C(Cc1nnc2cc(-c3nc(C4CC4)no3)ccn12)N1CCSCC1",
    "result.value": 698
  },
  {
    "compound": "O=C(Nc1cc(-c2ccccc2)[nH]n1)c1ccc(Cl)cc1",
    "result.value": 925
  },
  {
    "compound": "Cc1cccc(-n2c(=O)c3c(cc(C)n3C)n(CC(=O)Nc3ccc(C)c(C)c3)c2=O)c1",
    "result.value": 912
  },
  {
    "compound": "Cc1noc(C)c1Cc1ccc(C(=O)NCC23CCCC=C2NC(=O)CC3)o1 (stereo not drawn)",
    "result.value": 705
  },
  {
    "compound": "CCN(CC)S(=O)(=O)c1ccc2c(c1)cc(C(=O)NCCCN1CCCC(C)C1)n2C (stereo not drawn)",
    "result.value": 691
  }
]

Reference source for all entries: the METLIN SMRT retention time set (Domingo-Almenara et al. 2019)
